# assay target: NET (Homo sapiens, UniProt P23975)
# Sequence (P23975 whole entry): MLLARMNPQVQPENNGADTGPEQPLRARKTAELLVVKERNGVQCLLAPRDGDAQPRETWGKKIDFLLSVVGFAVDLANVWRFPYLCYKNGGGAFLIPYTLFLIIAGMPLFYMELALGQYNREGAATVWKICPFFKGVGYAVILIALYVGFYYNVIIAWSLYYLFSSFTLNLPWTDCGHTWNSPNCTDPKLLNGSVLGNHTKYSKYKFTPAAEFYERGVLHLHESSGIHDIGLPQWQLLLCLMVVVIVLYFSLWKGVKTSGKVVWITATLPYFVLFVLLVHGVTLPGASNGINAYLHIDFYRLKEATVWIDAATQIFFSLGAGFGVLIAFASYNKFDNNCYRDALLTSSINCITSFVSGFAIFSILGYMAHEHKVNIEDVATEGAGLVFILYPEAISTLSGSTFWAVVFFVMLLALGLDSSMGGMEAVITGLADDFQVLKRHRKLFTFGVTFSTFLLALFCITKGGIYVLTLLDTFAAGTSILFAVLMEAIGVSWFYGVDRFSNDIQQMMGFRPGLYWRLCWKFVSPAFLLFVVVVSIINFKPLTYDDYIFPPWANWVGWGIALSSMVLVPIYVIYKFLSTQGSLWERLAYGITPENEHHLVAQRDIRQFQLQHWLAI
# assay remarks: Monoamine reuptake inhibition assay, NET in HEK293 cells
With a cut-off of 9 µM, any IC50 strictly below it is called t; any IC50 meeting it or above is called f.

molecule	assigned category
Clc1ccccc1C(Cc1ccccc1)N1CCCCC1 (centres unmarked)	f
COc1ccccc1C(Cc1ccccc1)N1CCCCC1 (centres unmarked)	f
COc1cccc(C(Cc2ccccc2)N2CCCCC2)c1 (centres unmarked)	t
COc1ccc(C(Cc2ccccc2)N2CCCCC2)cc1 (centres unmarked)	f

###

# assay target: PCP site within the NMDAR channel
# assay remarks: NMDAR binding, [3H]-MK-801 displacement in rat forebrain homogenate;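 note: IC50 by nonlinear regression of percent specific binding versus log concentration, Ki from IC50 via Cheng-Prusoff, raw counts in CPM, duplicates repeated at least three times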
# condition details: read-out: Ki ± SEM; [3H]-(+)-MK-801, rat forebrain; Cheng-Prusoff
Where a name gives a salt, the structure may show the parent alone.
Note to self: use label 1 only for Ki readings below 40 nM; a reading exactly at 40 nM still gets label 0.

molecule	assigned category
c1ccc(CC(c2ccccc2)N2CCCCC2)cc1 (stereo not shown)	label 1
COc1cccc(C(Cc2ccccc2)N2CCCCC2)c1 (stereo not shown)	label 1
CC12CC3CC(C)(C1)CC(N)(C3)C2 [Memantine, memantine hydrochloride]	label 0
Clc1ccccc1C(Cc1ccccc1)N1CCCCC1 (stereo not shown)	label 1
COc1ccc(C(Cc2ccccc2)N2CCCCC2)cc1 (stereo not shown)	label 0
COc1ccccc1C(Cc1ccccc1)N1CCCCC1 (stereo not shown)	label 1
CNC1(c2ccccc2Cl)CCCCC1=O (stereo not shown) [Ketamine, ketamine, reference compound]	label 0

###

# assay target: M1 (Homo sapiens, UniProt P11229)
# Sequence (P11229 whole entry): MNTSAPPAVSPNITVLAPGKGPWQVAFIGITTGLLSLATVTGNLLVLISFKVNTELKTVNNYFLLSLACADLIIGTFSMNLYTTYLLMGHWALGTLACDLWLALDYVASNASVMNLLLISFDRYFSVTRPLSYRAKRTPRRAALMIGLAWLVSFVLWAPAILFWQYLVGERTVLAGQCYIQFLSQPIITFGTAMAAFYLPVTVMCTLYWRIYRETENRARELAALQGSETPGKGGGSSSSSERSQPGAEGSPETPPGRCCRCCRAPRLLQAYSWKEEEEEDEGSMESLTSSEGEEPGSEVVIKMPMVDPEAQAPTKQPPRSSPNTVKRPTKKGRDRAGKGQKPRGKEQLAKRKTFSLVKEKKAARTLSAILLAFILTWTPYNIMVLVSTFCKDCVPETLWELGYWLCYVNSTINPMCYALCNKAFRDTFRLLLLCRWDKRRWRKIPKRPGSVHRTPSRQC
Entries and their measured Ki follow.
readout label: Ki (µM)

compound	readout value
c1ccc(CC(c2ccccc2)N2CCCCC2)cc1 (stereo not shown)	2.65
Clc1ccccc1C(Cc1ccccc1)N1CCCCC1 (stereo not shown)	0.278
COc1cccc(C(Cc2ccccc2)N2CCCCC2)c1 (stereo not shown)	2.4
COc1ccc(C(Cc2ccccc2)N2CCCCC2)cc1 (stereo not shown)	2.43

###

# assay target: Human SERT (Homo sapiens)
# Sequence (P31645 whole entry): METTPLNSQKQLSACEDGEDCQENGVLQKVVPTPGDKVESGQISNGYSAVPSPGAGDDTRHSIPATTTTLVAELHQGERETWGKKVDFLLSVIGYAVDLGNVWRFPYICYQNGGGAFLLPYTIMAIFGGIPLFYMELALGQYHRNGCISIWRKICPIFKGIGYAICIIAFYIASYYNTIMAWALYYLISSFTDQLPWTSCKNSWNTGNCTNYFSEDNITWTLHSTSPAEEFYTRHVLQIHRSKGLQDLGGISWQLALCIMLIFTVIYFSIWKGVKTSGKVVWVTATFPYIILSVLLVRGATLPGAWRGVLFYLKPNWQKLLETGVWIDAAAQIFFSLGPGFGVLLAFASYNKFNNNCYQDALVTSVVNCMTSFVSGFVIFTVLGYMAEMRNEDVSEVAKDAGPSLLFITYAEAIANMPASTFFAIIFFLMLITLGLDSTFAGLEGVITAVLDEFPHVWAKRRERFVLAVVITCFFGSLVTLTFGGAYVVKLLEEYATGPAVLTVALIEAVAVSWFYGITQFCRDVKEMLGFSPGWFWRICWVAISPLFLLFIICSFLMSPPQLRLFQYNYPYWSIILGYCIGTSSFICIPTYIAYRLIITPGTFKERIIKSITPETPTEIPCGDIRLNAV
# assay remarks: Monoamine reuptake inhibition assay, SERT in HEK293 cells
pIC50: −log10 of the molar value.

compound	pIC50
c1ccc(CC(c2ccccc2)N2CCCCC2)cc1 (centres unmarked) [DPH, diphenidine]	< 5.00
COc1ccc(C(Cc2ccccc2)N2CCCCC2)cc1 (centres unmarked) [4-MXP, 4-methoxy-diphenidine]	4.72
COc1ccccc1C(Cc1ccccc1)N1CCCCC1 (centres unmarked) [2-MXP, 2-methoxydiphenidine]	< 5.00
Clc1ccccc1C(Cc1ccccc1)N1CCCCC1 (centres unmarked) [2-Cl-DPH, 2-Cl-diphenidine]	< 5.00
COc1cccc(C(Cc2ccccc2)N2CCCCC2)c1 (centres unmarked) [3-MXP, 3-methoxy-diphenidine]	< 5.00

###

# assay target: M4 (Homo sapiens, UniProt P08173)
# Sequence (P08173 whole entry): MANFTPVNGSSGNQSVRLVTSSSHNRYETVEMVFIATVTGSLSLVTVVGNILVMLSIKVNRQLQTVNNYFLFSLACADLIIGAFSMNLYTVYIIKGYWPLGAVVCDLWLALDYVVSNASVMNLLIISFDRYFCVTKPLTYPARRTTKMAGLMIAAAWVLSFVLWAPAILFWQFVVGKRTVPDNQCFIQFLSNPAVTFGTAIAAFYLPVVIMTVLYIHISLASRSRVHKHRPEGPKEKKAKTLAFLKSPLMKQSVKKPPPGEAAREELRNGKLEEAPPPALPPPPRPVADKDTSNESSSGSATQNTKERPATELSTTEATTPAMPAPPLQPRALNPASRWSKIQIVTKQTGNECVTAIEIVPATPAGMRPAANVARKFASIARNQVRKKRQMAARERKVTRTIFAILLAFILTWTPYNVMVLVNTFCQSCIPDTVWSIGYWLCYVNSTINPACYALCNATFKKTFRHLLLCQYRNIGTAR

compound	Ki, nM
Clc1ccccc1C(Cc1ccccc1)N1CCCCC1 (stereo not shown)	828
